biological target: A1 (Homo sapiens, UniProt P30542); test: A1 cell-based functional assay
Sequence (P30542 whole entry): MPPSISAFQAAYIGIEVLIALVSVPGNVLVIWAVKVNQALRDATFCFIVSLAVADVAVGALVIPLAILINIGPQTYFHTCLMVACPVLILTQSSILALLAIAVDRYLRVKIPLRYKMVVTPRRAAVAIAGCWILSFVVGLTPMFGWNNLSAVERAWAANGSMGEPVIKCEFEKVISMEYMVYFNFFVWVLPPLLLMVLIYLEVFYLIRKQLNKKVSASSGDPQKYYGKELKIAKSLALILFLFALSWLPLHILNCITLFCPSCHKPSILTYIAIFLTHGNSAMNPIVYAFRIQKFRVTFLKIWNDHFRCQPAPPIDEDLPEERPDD
Endpoint: Ki (nM)
Numeric answer only, unit nM assumed.

Query: Entry CN1CCN(C(=O)c2ccc3c(c2)-c2nc(N)nc(-c4ccccc4)c2C3=O)CC1 , system A1 (Homo sapiens, UniProt P30542): what Ki was measured?
Response: 58.4
